Exercise: for every item that follows, state its recorded melting point.
Structures can show the parent of a compound that is named as a salt.
Answers are plain numbers, in °C.

Here is how some molecules turned out for melting point.
molecule	reading-unit	value-reported
Fc1ccc2c(c1)CC/C2=C\c1cccc2cnccc12 (as salt: hydrochloride) [Compound 30a]	°C	234
Fc1ccc2c(c1)CC/C2=C/c1cccc2cnccc12 (as salt: hydrochloride) [Compound 30b]	°C	201
Brc1ccc2c(c1)CC/C2=C\c1cnc[nH]1.Cl [Compound 49a]	°C	228

Could I get melting point for every one of these entries?
1. Fc1ccc2c(c1)CC/C2=C\c1ccncc1 (as salt: hydrochloride)
2. Clc1ccc2c(c1)CC/C2=C\c1cccnc1 (as salt: hydrochloride)
3. N#Cc1ccc2c(c1)/C(=C\c1cnc[nH]1)CCC2.O=C(O)C(=O)O

a:
[224, 234, 197]

Could I get melting point for every one of these entries?
1. Clc1ccc2c(c1)CC/C2=C/c1cccnc1 (as salt: hydrochloride)
2. Brc1ccc2c(c1)CC/C2=C\c1cccnc1 (as salt: hydrochloride)

a:
1. 238
2. 241

---

target-or-test-system: human CYP11B1 (Homo sapiens)
Construct: expressed in transfected cells; host or cells: V79 MZh11B1 (Chinese hamster lung fibroblasts)
Sequence (P15538 25-503): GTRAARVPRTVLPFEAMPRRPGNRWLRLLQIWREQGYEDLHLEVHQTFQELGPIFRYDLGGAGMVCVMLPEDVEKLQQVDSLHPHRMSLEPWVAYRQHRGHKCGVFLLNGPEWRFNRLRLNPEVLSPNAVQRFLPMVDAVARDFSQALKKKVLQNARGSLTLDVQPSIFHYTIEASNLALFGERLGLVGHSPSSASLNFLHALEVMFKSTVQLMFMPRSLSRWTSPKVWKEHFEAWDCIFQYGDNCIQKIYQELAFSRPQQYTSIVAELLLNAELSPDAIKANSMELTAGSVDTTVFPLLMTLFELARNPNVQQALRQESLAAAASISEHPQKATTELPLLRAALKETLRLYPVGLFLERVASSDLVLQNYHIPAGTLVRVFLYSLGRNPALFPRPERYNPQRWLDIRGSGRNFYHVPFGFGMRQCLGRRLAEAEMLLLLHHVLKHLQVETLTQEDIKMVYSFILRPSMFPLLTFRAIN
assay-overview: V79 MZh 11B1 cells inhibition test
Format: cell-based
condition-context: hamster fibroblasts which express human CYP11B1; deoxycorticosterone substrate 100 nM; read-out: IC50 V79 11B1 hCYP11B1
Where a name gives a salt, the structure may show the parent alone.
quantity-measured: pIC50
Numbers only, as −log10 of the molar value.

Here is how some compounds turned out for pIC50.
compound	quantity-measured	value-reported
Brc1ccc2c(c1)CC/C2=C/c1cccnc1 [Compound 9b, Hydrochloride]	pIC50	6.49
Fc1ccc2c(c1)CC/C2=C/c1cccc2cnccc12 [Compound 30b, Hydrochloride]	pIC50	6.43
Brc1ccc2c(c1)CC/C2=C\c1ccncc1 [Compound 10a, Hydrochloride]	pIC50	6.02

Could I get pIC50 for every one of these entries?
1. Clc1cccc2c1CC/C2=C\c1cccnc1 [Compound 25a, Hydrochloride]
2. C(=C1\CCc2ccccc21)/c1cccnc1.Cl [Compound 1b, Hydrochloride]
3. C(=C1\CCc2ccccc21)/c1cnc[nH]1 [Compound 42b]

a:
1. 6.52
2. 7.06
3. 8.21

Could I get pIC50 for every one of these entries?
1. C/C(=C1/CCc2ccccc21)c1cccnc1.Cl [Compound 38a, Hydrochloride]
2. Fc1ccc2c(c1)CC/C2=C\c1ccncc1 [Compound 6a, Hydrochloride]
3. C(=C1/CCCc2ccccc21)/c1cccnc1.Cl [Compound 3a, Hydrochloride]

a:
6.80
6.42
6.15

q: Suppose we examine the compound Clc1ccc2c(c1)CC/C2=C\c1ccncc1 [Compound 8a, Hydrochloride] ; what pIC50 value has been reported?
a: 6.61

---

Exercise: for every item that follows, state its recorded pIC50.
target-or-test-system: human placental CYP19 (Homo sapiens, UniProt P11511)
Construct: The enzyme was obtained from the microsome fraction of fresh human placenta; from tissue; host or cells: human placenta, microsomal fraction
Sequence (P11511 1-503): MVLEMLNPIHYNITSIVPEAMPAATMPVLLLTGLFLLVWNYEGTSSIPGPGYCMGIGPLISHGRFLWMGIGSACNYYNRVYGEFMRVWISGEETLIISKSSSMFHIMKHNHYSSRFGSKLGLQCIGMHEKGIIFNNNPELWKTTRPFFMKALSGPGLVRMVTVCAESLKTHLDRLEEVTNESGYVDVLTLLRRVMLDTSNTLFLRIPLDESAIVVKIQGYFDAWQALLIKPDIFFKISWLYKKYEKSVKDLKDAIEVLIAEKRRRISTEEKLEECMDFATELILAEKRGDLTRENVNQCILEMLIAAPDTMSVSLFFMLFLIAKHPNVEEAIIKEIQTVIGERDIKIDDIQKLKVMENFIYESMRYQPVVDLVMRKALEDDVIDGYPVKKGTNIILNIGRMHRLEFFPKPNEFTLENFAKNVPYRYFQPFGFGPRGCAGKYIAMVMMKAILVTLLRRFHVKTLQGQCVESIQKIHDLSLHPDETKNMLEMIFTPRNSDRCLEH
assay-overview: IC50 of CYP19 (human placental microsomes)
Type: biochemical
condition-context: human placental CYP19; testosterone substrate 2.5 μM
Counter-ions that a name gives are not always drawn.
Answers are plain numbers, as −log10 of the molar value.

molecule	target-or-test-system	pIC50
Clc1ccc2c(c1)CC/C2=C\c1ccncc1 [Compound 8a, Hydrochloride]	human placental CYP19 (Homo sapiens, UniProt P11511)	5.27

Could I get pIC50 for every one of these entries?
1. Fc1ccc2c(c1)CC/C2=C\c1ccncc1 [Compound 6a, Hydrochloride]
2. COc1ccc2c(c1)CCC/C2=C/c1cccnc1.Cl [Compound 13b, Hydrochloride]
3. C(=C1\CCc2ccccc21)/c1ccncc1
4. Brc1ccc2c(c1)CC/C2=C\c1cccnc1 [Compound 9a, Hydrochloride]
5. Fc1cccc2c1CC/C2=C\c1cccnc1 [Compound 24a, Hydrochloride]
6. CCOc1ccc2c(c1)CC/C2=C\c1cccnc1 [Compound 19a, Hydrochloride]
7. C(=C1/CCc2ccccc21)/c1ccncc1

a:
1: 5.81; 2: 5.40; 3: 4.90; 4: 5.11; 5: 5.74; 6: 5.15; 7: 5.17

Values were extracted from patent US20090105278A1.
